The measurements presented in this section are drawn from patent US20250382359A1.

Listed below: koff values for each entry.
- ASSAYED TARGET: T1, Human GDF15 Fc (human, UniProt Q99988 195-308, limits assumed, biotinylated (EZ-Link Sulfo-NHS-Biotinylation Kit) in the SPR assay)
- T1 construct: also called human GDF15-Fc fusion; biotinylated Human GDF15 Fc; not shown: Fc part
- T1 sequence: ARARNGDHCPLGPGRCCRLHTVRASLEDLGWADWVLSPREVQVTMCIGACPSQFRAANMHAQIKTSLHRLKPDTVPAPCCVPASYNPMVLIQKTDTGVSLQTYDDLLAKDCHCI
- TEST: SPR Biacore 8K; biotinylated antigen captured, Fab analyte
# number then unit; no other words

* GDF15 antibody agent Clone M, Fab (Fab, V domains shown, Fab; CH1 and CL of the Fab not specified; also called Fab of Clone M) VH: QVQLVQSGAEVKKPGASVKVSCKASGYTFDSYGINWVRQAPGQGLEWMGWISAYSGDTAYAQELQGRVTMTTDTSTSTAYMELRSLRSDDTAVYYCVRDTQYGGSPYWGQGTLVTVSS VL: EIVMTQSPATLSVSPGERATLSCRASQSVSSNLAWYQQKPGQAPRLLIYGASTRATGIPARFSGSGSGTEFTLTISSLQSEDFAVYYCQQYNNWPITFGGGTKVEIK | 0.00191 s⁻¹
* GDF15 antibody agent Clone I, Fab (Fab, V domains shown, Fab; CH1 and CL of the Fab not specified; also called Fab of Clone I) VH: QVQLVQSGAEVKKPGASVKVSCKASGYTFTDEGINWVRQAPGQGLEWMGWITAYSGDTVYAQKLQGRVTMTTDTSTSTAYMELRSLRSDDTAVYYCARGPGQYADVDVWGQGTMVTVSS VL: DIQMTQSPSSVSASVGDRVTITCRASQGISSWLAWYQQKPGKAPKLLIYAASSLQSGVPSRFSGSGSGTDFTLTISSLQPEDFATYYCQQANSFPITFGGGTKVEIK | 0.000259 s⁻¹

// next item, koff requested
-- ask # get_value(readout='koff', item= GDF15 antibody agent Clone N, Fab (Fab, V domains shown, Fab; CH1 and CL of the Fab not specified; also called Fab of Clone N) VH: QVQLVQSGAEVKKPGASVKVSCKASGYTFTDYGIFWVRQAPGQGLEWMGWITAYSGDTHYAQKLQGRVTMTTDTSTSTAYMELRSLRSDDTAVYYCVRDTQYGGSPYWGQGTLVTVSS VL: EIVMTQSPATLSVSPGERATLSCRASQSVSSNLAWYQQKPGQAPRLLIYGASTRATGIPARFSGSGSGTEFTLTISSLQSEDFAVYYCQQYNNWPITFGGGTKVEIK )
-- reply 0.00318 s⁻¹
